subject.of.test: Human HIF-PHD2 (Homo sapiens, UniProt Q9GZT9)
Construct: FLAG-tagged full length PHD2 expressed in and purified from baculovirus-infected Sf9 cells; FLAG; made in house; host or cells: baculovirus-infected Sf9 cells
Sequence (Q9GZT9 whole entry): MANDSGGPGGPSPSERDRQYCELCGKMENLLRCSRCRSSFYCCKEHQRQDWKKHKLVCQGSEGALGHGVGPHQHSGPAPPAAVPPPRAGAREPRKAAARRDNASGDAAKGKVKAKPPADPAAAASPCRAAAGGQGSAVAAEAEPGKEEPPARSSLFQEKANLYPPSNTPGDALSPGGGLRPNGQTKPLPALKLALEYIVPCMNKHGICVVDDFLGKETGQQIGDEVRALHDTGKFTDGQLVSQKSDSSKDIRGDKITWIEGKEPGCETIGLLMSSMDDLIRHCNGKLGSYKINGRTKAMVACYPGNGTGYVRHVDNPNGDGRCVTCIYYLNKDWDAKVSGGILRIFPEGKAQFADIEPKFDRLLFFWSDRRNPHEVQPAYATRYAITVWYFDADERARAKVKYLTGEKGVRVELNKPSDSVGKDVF
assay.name: Inhibition of the hydroxylation of a HIF peptide by PHD2 (time resolved fluorescence, 384-well)
Type: biochemical
run.conditions: FLAG-tagged full length PHD2; 0.2 μM 2-oxoglutarate, 0.5 μM HIF-1α peptide; 45 minutes at room temperature; read-out: MS m/z (M + 1)+ and human HIF-PHD2 IC50
IC50 under 10 nM gets MET, anything at or over 10 nM gets NOT MET.

> print(dat)
                                    compound  class.assignment
 1  N#Cc1ccc2c3c1c(O)c(C(=O)NCC(=O)O)c(=O)n3C(c1ccc(C(F)(F)F)cc1)CO2 (stereo not drawn) [Example 180]               MET
 2  O=C(O)CNC(=O)c1c(O)c2c(F)ccc3c2n(c1=O)C(c1ccc(C(F)(F)F)cc1)CO3 (stereo not drawn) [Example 162]           NOT MET
 3  O=C(O)CNC(=O)c1c(O)c2ccc(-c3cncnc3)c3c2n(c1=O)C(c1ccc(C(F)(F)F)cc1)CO3 (stereo not drawn) [Example 138]           NOT MET
 4  COc1ccc(-c2ccc(C3COc4cccc5c(O)c(C(=O)NCC(=O)O)c(=O)n3c45)cc2)cc1 (stereo not drawn) [Example 145]               MET
 5  O=C(O)CNC(=O)c1c(O)c2cccc3c2n(c1=O)C(c1ccc(-c2ccn[nH]2)cc1)CO3 (stereo not drawn) [Example 152]           NOT MET
 6  Nc1ccc(-c2ccc(C3COc4cccc5c(O)c(C(=O)NCC(=O)O)c(=O)n3c45)cc2)cn1 (stereo not drawn) [Example 149]           NOT MET
 7  N#Cc1ccc2c(O)c(C(=O)NCC(=O)O)c(=O)n3c2c1OCC3c1cncs1 (stereo not drawn) [Example 182]               MET
 8  COc1cncc(-c2ccc3c(O)c(C(=O)NCC(=O)O)c(=O)n4c3c2OCC4c2ccc(C(F)(F)F)cc2)c1 (stereo not drawn) [Example 135]           NOT MET
 9  O=C(O)CNC(=O)c1c(O)c2c(F)ccc3c2n(c1=O)C(c1cncs1)CO3 (stereo not drawn) [Example 172]               MET
10  O=C(O)CNC(=O)c1c(O)c2cc(F)cc3c2n(c1=O)C(c1ccc(C(F)(F)F)cc1)CO3 (stereo not drawn) [Example 158]           NOT MET
11  O=C(O)CNC(=O)c1c(O)c2ccc(Br)c3c2n(c1=O)C(c1cscn1)CO3 (stereo not drawn) [Example 170]               MET
12  COc1ccc(-c2ccc3c(O)c(C(=O)NCC(=O)O)c(=O)n4c3c2OCC4)cn1 [Example 154]               MET
13  CS(=O)(=O)c1cc2c3c(c1)c(O)c(C(=O)NCC(=O)O)c(=O)n3C(c1ccc(C(F)(F)F)cc1)CO2 (stereo not drawn) [Example 184]           NOT MET
14  NC(=O)c1cccc(-c2ccc3c(O)c(C(=O)NCC(=O)O)c(=O)n4c3c2OCC4c2ccc(C(F)(F)F)cc2)c1 (stereo not drawn) [Example 139]           NOT MET
